B1: Pre-mRNA-processing factor 40 homolog B, residues 274 to 332; numbered along this chain, Q6NWY9 (parent)
chain: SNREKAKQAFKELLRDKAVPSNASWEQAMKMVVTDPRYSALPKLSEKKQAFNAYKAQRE

Variants of: B1
assayExplanation: abundance fitness (aPCA) (normalised: wild type 0, dead -1); higher = more abundant; growth selection in yeast, the domain comes from the species named
studyConditions: Homo sapiens
readoutKind: abundance fitness
Just the number, please, no unit after it.

# annotated cases, reported abundance fitness shown
| mutationSpec | numericReadout |
| --- | --- |
| A56Q | 0.027 |
| V19M | -0.32 |
| S1N | -0.042 |

abundance fitness for `R37C` ?
-0.668

Try `Q8G` next.
-0.301

Try `V32Y` next.
-0.583

Try `A56Y` next.
-0.351

Try `P42I` next.
-0.283

Try `K11R` next.
-0.03

Try `K55H` next.
-0.258

Try `A6G` next.
-0.05
